Reference source: patent US6355799B1

Quick reference: ECHCG phytotoxicity rating of the listed items.
# System: barnyardgrass (Echinochloa crus-galli, ECHCG)
# Assay Summary: Post-emerge test, greenhouse herbicide activity screening
# Format: in vivo
# Assay Setup: post-emerge, 63 g ai/ha, 14 days after application, rating scale 0-100
When you answer, write just the number.

{"Smiles String": "N#CCOc1c(Cl)cc(F)c(-n2c(=O)cc(C(F)(F)F)n(N)c2=O)c1NC(=O)c1ccc2ccccc2c1", "Test Readout": "ECHCG phytotoxicity rating", "Quantitative Result": 30}

Looking up `CCSCC(=O)Nc1c(OC)c(Cl)cc(F)c1-n1c(=O)cc(C(F)(F)F)n(C)c1=O` , I see its ECHCG phytotoxicity rating listed as 0

Looking up `COc1c(Cl)cc(F)c(-n2c(=O)cc(C(F)(F)F)n(C)c2=O)c1NC(=O)COc1ccc(Cl)cc1Cl` , I see its ECHCG phytotoxicity rating listed as 80
